The reader will find reported pIC50 values listed item by item below.
# PROTOCOL: Inhibition of Haemophilus influenzae acetyltransferase activity of GlmU using acetyl-CoA and glucosamine-1-phosphate after 30 mins by Ellman's method
pIC50: −log10 of the molar value.
VALUE TYPE: pIC50

                                    compound  op  measured
 0  COc1cc(OC)c(S(=O)(=O)Nc2ccccc2F)cc1NC(C)=O   =      5.00
 1  COc1cc(OC)c(S(=O)(=O)N2c3ccccc3CCC2C)cc1NC(=O)CSc1ccncc1 (stereo unspecified)   =      5.22
 2  COc1cc(OC)c(S(=O)(=O)NCc2ccccc2Br)cc1NC(C)=O   =      4.70
 3  CCN(c1ccccc1C)S(=O)(=O)c1cc(NC(C)=O)c(OC)cc1OC   =      4.10
 4  COc1cc(OC)c(S(=O)(=O)N(c2ccccc2)C(C)C)cc1NC(C)=O   =      4.80
 5  COc1cc(OC)c(S(=O)(=O)N2c3ccccc3CCC2C)cc1NC(=S)NCC(=O)O (stereo unspecified)   =      6.00
 6  COc1cc(OC)c(S(=O)(=O)NCc2ccccc2N2CCC(C(=O)O)CC2)cc1NC(=O)CCC(=O)O   =      6.00
 7  COc1cc(OC)c(S(=O)(=O)N2c3ccccc3CCC2C)cc1NC(=O)CCC(=O)O (stereo unspecified)   =      6.22
 8  COc1cc(OC)c(S(=O)(=O)Nc2ccc(C)cc2)cc1NC(C)=O   =      4.33
 9  COc1cc(OC)c(S(=O)(=O)NCc2ccccc2N2CCC(CC(=O)O)CC2)cc1NC(=O)CCC(=O)O   =      5.52
10  COc1cc(OC)c(S(=O)(=O)NCc2ccccc2N2CCCCC2)cc1NC(C)=O   =      3.92
11  COc1cc(OC)c(S(=O)(=O)N2c3ccccc3CCC2C)cc1NC(C)=O (stereo unspecified)   =      5.52
12  COc1cc(OC)c(S(=O)(=O)N2c3ccccc3CC2C)cc1NC(C)=O (stereo unspecified)   =      5.10
13  COc1cc(OC)c(S(=O)(=O)N2c3ccccc3CCC2C)cc1NC(=O)COc1ccc(C(C)=O)cc1 (stereo unspecified)   <      3.70
14  COc1cc(OC)c(S(=O)(=O)N2CCCC2C)cc1NC(C)=O (stereo unspecified)   <      3.70
15  COc1ccccc1CNS(=O)(=O)c1cc(NC(C)=O)c(OC)cc1OC   =      4.27
16  COc1cc(OC)c(S(=O)(=O)Nc2ccccc2)cc1NC(C)=O   =      4.15
17  COc1cc(OC)c(S(=O)(=O)N2c3ccccc3CCC2C)cc1NC(=O)c1ccccc1 (stereo unspecified)   <      3.70
18  COc1cc(OC)c(S(=O)(=O)N2c3ccccc3CCC2C)cc1NS(C)(=O)=O (stereo unspecified)   <      3.70
19     COc1cc(OC)c(S(=O)(=O)N(C)C)cc1NC(C)=O   <      3.70
20  COC(=O)c1ccccc1CNS(=O)(=O)c1cc(NC(C)=O)c(OC)cc1OC   =      4.26
